- System: EMC-BAC-2
- PROTOCOL_SUMMARY: relative viability (nuclei count vs DMSO), 5 days (fraction); higher = more cells survive
- CONDITION_SET: first compound 8 µM
Measured relative viability accompanies every entry in the list below.
MEASURE_NAME: relative viability

molecule="CCCCCCCCCCCC1=C(O)C(=O)C=C(O)C1=O [Embelin] + COc1cc2c(Oc3ccc(NC(=O)C4(C(=O)Nc5ccc(F)cc5)CC4)cc3F)ccnc2cc1OCCCN1CCOCC1 [Foretinib] (partner 0.25 µM)" readout_value=1.07
molecule="CCCCCCCCCCCC1=C(O)C(=O)C=C(O)C1=O [Embelin] + CC(C)C[C@H](NC(=O)[C@H](Cc1ccccc1)NC(=O)c1cnccn1)B(O)O [Bortezomib] (partner 0.002 µM)" readout_value=1.09
molecule="CCCCCCCCCCCC1=C(O)C(=O)C=C(O)C1=O [Embelin] + COc1cccc2cc(-c3nc([C@H]4CC[C@H](C(=O)O)CC4)n4ncnc(N)c34)[nH]c12 [OSI-027] (partner 0.5 µM)" readout_value=0.353
